Numbers sourced from patent US20180085455A1.

Recorded measurements of kon, one per entry
target.or.test.system: T1, recombinant human ErbB3 protein (R&D systems) (human, UniProt P21860 20-643)
T1 construct: Bought recombinant protein; also called HER3
assay.protocol: BLI (Octet QK384), human ErbB3 immobilized on AR2G sensor, IgG at 12.5-50 nM
Note: unit M⁻¹ s⁻¹ is implicit; provide only the numeric part.

Consider the reported kon for these binders:
[[record]]
binder = "451P (antibody, V domains shown, IgG1 (Selexis 085 vector, CHO); also called anti-ErbB3 lead antibody 451P) VH: EVQLLESGGGLVQPGGSLRLSCAASGFTFSDYDMSWVRQAPGKGLEWVSAIYYDSGSIYYADSAKGRFTISRDNSKNTLYLQMNSLRAEDTAVYYCAKDRLFVSDSTFDYWGQGTLVTVSS VL: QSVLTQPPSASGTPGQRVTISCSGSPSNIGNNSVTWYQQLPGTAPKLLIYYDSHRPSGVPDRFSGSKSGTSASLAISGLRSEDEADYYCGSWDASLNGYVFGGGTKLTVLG"
reported = "1.18e+06"

[[record]]
binder = "442M3 (antibody, V domains shown, IgG1 (Selexis 085 vector, CHO)) VH: EVQLLESGGGLVQPGGSLRLSCAASGFTFSDYDMSWVRQAPGKGLEWVSSIYPDSGSTYYADSVQGRFTISRDNSKNTLYLQMNSLRAEDTAVYYCAKDRHMWPEGPFDYWGQGTLVTVSS VL: QSVLTQPPSASGTPGQRVTISCSGSSSNIGSNSGSWYQQLPGTAPKLLIYADNWRPSGVPDRFSGSKSGTSASLAISGLRSEDEADYYCAAWDSSLSGYVFGGGTKLTVLG"
reported = 771000


Next up:
### Prompt What value of measured kon is listed for 442S1 (antibody, V domains shown, IgG1 (Selexis 085 vector, CHO)) VH: EVQLLESGGGLVQPGGSLRLSCAASGFTFSDYDMSWVRQAPGKGLEWVSTIDLDSGSIYYADSVQGRFTISRDNSKNTLYLQMNSLRAEDTAVYYCAKDLHMGPEGPFDYWGQGTLVTVSS VL: QSVLTQPPSASGTPGQRVTISCSGSSSNIGSNSVSWYQQLPGTAPKLLIYSDNHRPSGVPDRFSGSKSGTSASLAISGLRSEDEADYYCQGWDTSLSGHVFGGGTKLTVLG ?
### Response 522000
